# Test system: colon cancer cell line DLD1
# assaySummary: Cancer cell line colony survival assay, DLD1
# Type: cell-based, human
# protocolConditions: colon cancer cell line DLD1, 4 h exposure, colonies after 10-15 days; read-out: AA in Cancer Cell Lines IC50 (μM) DLD1
measurementType: IC50

- compound: "CC(=O)c1cc2cc3ccccc3cc2o1 [Compound 73a, Naphtho[2,3-b]furan-2-yl-ethanone]"
  recordedMeasurement: "> 32 µM"
- compound: "COc1ccc(C(=O)c2cc3c(o2)C(=O)c2ccccc2C3=O)cc1OC [Compound 75b]"
  recordedMeasurement: "1.4 µM"
- compound: "CC(=O)c1cc2cc3ccccc3cc2s1 [Compound 63a, Naphtho[2,3-b]thiophen-2-yl-ethanone]"
  recordedMeasurement: "> 32 µM"

----------
# Tested on: breast cancer cell line MCF7
# assaySummary: Cancer cell line colony survival assay, MCF7
# Format: cell-based, human
# protocolConditions: Homo sapiens, MCF7, read-out: AA in Cancer Cell Lines IC50 (μM) MCF7
measurementType: IC50

- molecule: "CC1(C)CCC2=C(O1)c1ccccc1C(=O)C2=O [β-lapachone, reference compound]"
  studyTarget: "breast cancer cell line MCF7"
  measurementType: "IC50"
  recordedMeasurement: "≤ 1 µM"

----------
# Test system: colon cancer cell line DLD1
# assaySummary: Cancer cell line colony survival assay, DLD1
# Format: cell-based, human
# protocolConditions: Homo sapiens, DLD-1; colon cancer cell line DLD1, 4 h exposure, colonies after 10-15 days; read-out: AA in Cancer Cell Lines IC50 (μM) DLD1
# Method: HaCaT keratinocyte proliferation assay and LDH release were described previously in full detail (Muller et al. J. Med. Chem. 39: 3132-3138, 1996; Müller et al. J. Med. Chem. 37: 1660-1669, 1994). For the cancer cell line studies, exponentially growing cells were seeded at 1,000 cells per well in six-well plates and allowed to attach for 24 h. […] Colonies of greater than 30 cells were scored as survivors.

- compound: "COc1ccc(C(=O)c2cc3c(s2)C(=O)c2ccccc2C3=O)cc1OC [Compound 65b]"
  censoringSign: "="
  IC50 / µM: 2.6
- compound: "O=C(c1ccccc1)c1cc2cc3ccccc3cc2s1 [Compound 64a]"
  censoringSign: "="
  IC50 / µM: 1.5
- compound: "COc1ccc(C(=O)c2cc3cc4ccccc4cc3s2)cc1OC [Compound 65a]"
  censoringSign: ">"
  IC50 / µM: 32
- compound: "O=C(c1ccc(O)cc1)c1cc2c(s1)C(=O)c1ccccc1C2=O [Compound 62c]"
  censoringSign: "="
  IC50 / µM: 5.3
- compound: "O=C(c1ccc(O)c(O)c1)c1cc2c(s1)C(=O)c1ccccc1C2=O [Compound 65c]"
  censoringSign: "="
  IC50 / µM: 11

----------
# LDH (mU) annotations
# Test system: HaCaT cells
# Assay type: cell-based, human
# protocolConditions: human, 2 μM
# Method: HaCaT keratinocyte proliferation assay and LDH release were described previously in full detail (Muller et al. J. Med. Chem. 39: 3132-3138, 1996; Müller et al. J. Med. Chem. 37: 1660-1669, 1994). For the cancer cell line studies, exponentially growing cells were seeded at 1,000 cells per well in six-well plates and allowed to attach for 24 h. […] Colonies of greater than 30 cells were scored as survivors. […]
measurementType: LDH (mU)

- compound: "CC(=O)c1cc2c(o1)C(=O)c1ccccc1C2=O [Compound 6, 2-Acetyl-naphtho[2,3-b]furan4,9-dione]"
  studyTarget: "HaCaT cells"
  measurementType: "LDH (mU)"
  recordedMeasurement: 331
- compound: "CC(=O)Oc1cccc2c1C(=O)c1ccsc1C2=O"
  studyTarget: "HaCaT cells"
  measurementType: "LDH (mU)"
  recordedMeasurement: 160
- compound: "CC(=O)c1cc2c(s1)C(=O)c1ccccc1C2=O [Compound 63b]"
  studyTarget: "HaCaT cells"
  measurementType: "LDH (mU)"
  recordedMeasurement: 134
- compound: "O=C(c1ccccc1)c1cc2cc3ccccc3cc2s1 [Compound 64a]"
  studyTarget: "HaCaT cells"
  measurementType: "LDH (mU)"
  recordedMeasurement: 122
- compound: "O=C(c1ccc(O)cc1)c1cc2c(s1)C(=O)c1ccccc1C2=O [Compound 62c]"
  studyTarget: "HaCaT cells"
  measurementType: "LDH (mU)"
  recordedMeasurement: 123
- compound: "O=C1c2cccc(O)c2C(=O)c2ccsc21"
  studyTarget: "HaCaT cells"
  measurementType: "LDH (mU)"
  recordedMeasurement: 117
- compound: "COc1ccc(C(=O)c2cc3c(s2)C(=O)c2ccccc2C3=O)cc1OC [Compound 65b]"
  studyTarget: "HaCaT cells"
  measurementType: "LDH (mU)"
  recordedMeasurement: 137
- compound: "CC1(C)CCC2=C(O1)c1ccccc1C(=O)C2=O [β-lapachone, reference compound]"
  studyTarget: "HaCaT cells"
  measurementType: "LDH (mU)"
  recordedMeasurement: 329
- compound: "O=C1c2c(O)cccc2Cc2cccc(O)c21 [anthralin, reference compound]"
  studyTarget: "HaCaT cells"
  measurementType: "LDH (mU)"
  recordedMeasurement: 294
- compound: "O=C(c1ccccc1)c1cc2cc3ccccc3cc2o1 [Compound 74a, Naphtho[2,3-b]furan-2-yl-phenylmethanone]"
  studyTarget: "HaCaT cells"
  measurementType: "LDH (mU)"
  recordedMeasurement: 142
- compound: "O=C(c1ccccc1)c1cc2c(o1)C(=O)c1ccccc1C2=O [Compound 74b, 2-Benzoyl-naphtho[2,3-b]furan-4,9-dione]"
  studyTarget: "HaCaT cells"
  measurementType: "LDH (mU)"
  recordedMeasurement: 222
- compound: "O=C(c1ccc(O)c(O)c1)c1cc2c(s1)C(=O)c1ccccc1C2=O [Compound 65c]"
  studyTarget: "HaCaT cells"
  measurementType: "LDH (mU)"
  recordedMeasurement: 118
